Assay: Cytotoxicity against human Raji cells assessed as cell viability at 100 molar ratio
Format: cell-based
Conditions: read-out: Activity
Readings of viability at 100 molar ratio for the listed compounds

Observe how each entry below is paired with its result.
COMPOUND | MEASURED QUANTITY | VAL
COc1cc(-c2oc3cc(O)cc(O)c3c(=O)c2O[C@@H]2O[C@H](CO[C@@H]3O[C@@H](C)[C@H](O)[C@@H](O)[C@H]3O)[C@@H](O)[C@H](O)[C@H]2O)ccc1O [NARCISSIN] | viability at 100 molar ratio | > 80%
CC1=C(/C=C/C(C)=C/C=C/C(C)=C/C=C/C=C(C)/C=C/C=C(C)/C=C/C2=C(C)CCCC2(C)C)C(C)(C)CCC1 [BETA CAROTENE] | viability at 100 molar ratio | > 80%

Let's switch to this compound now.
Could you share which viability at 100 molar ratio value was measured for COc1cc(-c2oc3cc(O)cc(O)c3c(=O)c2O[C@@H]2O[C@H](CO)[C@@H](O)[C@H](O)[C@H]2O[C@@H]2O[C@@H](C)[C@H](O)[C@@H](O)[C@H]2O)ccc1O ? > 80%

// data source = ChEMBL document CHEMBL1158122
